ASSAYED_TARGET: Akt3 (Homo sapiens)
Construct: unspecified tag, removed (detagged) (cleaved yes); purchased SignalChem and Proteros (Akt3); Merck Millipore (PDK1) 14-452 (PDK1); none given for Akt3
Sequence (Q9Y243 whole entry): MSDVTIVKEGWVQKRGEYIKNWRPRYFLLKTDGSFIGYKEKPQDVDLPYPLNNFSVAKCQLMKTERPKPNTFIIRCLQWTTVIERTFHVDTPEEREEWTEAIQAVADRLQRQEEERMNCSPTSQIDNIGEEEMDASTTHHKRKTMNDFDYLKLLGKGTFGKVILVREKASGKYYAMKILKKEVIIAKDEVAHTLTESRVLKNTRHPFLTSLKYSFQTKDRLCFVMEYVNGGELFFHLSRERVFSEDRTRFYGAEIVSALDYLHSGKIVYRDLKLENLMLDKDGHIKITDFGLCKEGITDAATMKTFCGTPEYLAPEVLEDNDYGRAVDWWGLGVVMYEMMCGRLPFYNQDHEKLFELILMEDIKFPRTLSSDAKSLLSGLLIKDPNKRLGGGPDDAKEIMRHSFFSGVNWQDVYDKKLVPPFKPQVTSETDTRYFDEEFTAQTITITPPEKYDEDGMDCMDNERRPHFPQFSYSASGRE
METHOD_NOTES: Akt activation assay (PDK1-mediated activation, LANCE Ultra crosstide TR-FRET), Akt3
Format: biochemical
APPLIED_CONDITIONS: read-out: Biological Assay 1 IC50 (nM) Akt3
Here, each record is paired with measured log10 of IC50 data.
ASSAY_READOUT: log10 of IC50 (log10 of the value in nM)

INSERT INTO measurements (compound, assay_readout, numeric_readout) VALUES
  ('CC(=O)N[C@H]1CC[C@H](CC(=O)Nc2cnc(-c3ccc(C(C)(C)N)cc3)c(-c3ccccc3)c2)CC1 [Example A19]', 'log10 of IC50', 2.04),
  ('COC(=O)N(C)[C@H]1CC[C@H](CC(=O)Nc2cc(-c3ccccc3)c(-c3ccc(C4(N)CC4)cc3)nn2)CC1 [Example A77]', 'log10 of IC50', 1.34),
  ('NC1(c2ccc(-c3ncc(NC(=O)C[C@H]4CC[C@H](NC(=O)C(F)F)CC4)cc3-c3ccccc3)cc2)CC1 [Example A42]', 'log10 of IC50', 2.45),
  ('CCC(=O)N(C)[C@H]1CC[C@H](CC(=O)Nc2cc(-c3ccccc3)c(-c3ccc([C@]4(N)C[C@](C)(O)C4)cc3)nn2)CC1 [Example 83]', 'log10 of IC50', 0.60),
  ('N[C@]1(c2ccc(-c3nnc(NC(=O)C[C@H]4CC[C@H](N5CCOC5=O)CC4)cc3-c3ccccc3)cc2)C[C@@H](F)C1 [Example 45]', 'log10 of IC50', 1.83),
  ('COC(=O)N(C)[C@H]1CC[C@H](CC(=O)Nc2cc(-c3ccsc3)c(-c3ccc([C@]4(N)C[C@](C)(O)C4)cc3)nn2)CC1 [Example 84]', 'log10 of IC50', 0.70);
